System: Rattus norvegicus
Assay: Area under curve was evaluated in rat brain when administered intravenously at a dose of 10 mg/kg for 4 or 6 hours
Type: ADME, organism-based
Set-up: dose 10 mg/kg, route intravenous
Settings: in vivo, iv
Quantity kind: AUC (ng·h/mL)
Numeric only. Scale: ng·h/mL

Request: Give recorded AUC with Rattus norvegicus for the following compound: N[C@](CC1c2ccccc2Oc2ccccc21)(C(=O)O)[C@H]1C[C@@H]1C(=O)O
Result: 701

====

Tested on: Rattus norvegicus
Test: Area under curve was evaluated in rat brain when administered perorally at a dose of 100 mg/kg for 4 or 6 hours
Assay type: ADME, organism-based
Parameters: dose 100 mg/kg, route oral
Details: in vivo, po
Quantity kind: AUC (ng·h/mL)
Numeric only. Scale: ng·h/mL

Request: Give its AUC value. Item: N[C@](CC1c2ccccc2Oc2ccccc21)(C(=O)O)[C@H]1C[C@@H]1C(=O)O
Result: 120
